- measurementTarget: Luciferin 4-monooxygenase (Photinus pyralis) (UniProt P08659)
- Sequence (P08659 whole entry, looked up): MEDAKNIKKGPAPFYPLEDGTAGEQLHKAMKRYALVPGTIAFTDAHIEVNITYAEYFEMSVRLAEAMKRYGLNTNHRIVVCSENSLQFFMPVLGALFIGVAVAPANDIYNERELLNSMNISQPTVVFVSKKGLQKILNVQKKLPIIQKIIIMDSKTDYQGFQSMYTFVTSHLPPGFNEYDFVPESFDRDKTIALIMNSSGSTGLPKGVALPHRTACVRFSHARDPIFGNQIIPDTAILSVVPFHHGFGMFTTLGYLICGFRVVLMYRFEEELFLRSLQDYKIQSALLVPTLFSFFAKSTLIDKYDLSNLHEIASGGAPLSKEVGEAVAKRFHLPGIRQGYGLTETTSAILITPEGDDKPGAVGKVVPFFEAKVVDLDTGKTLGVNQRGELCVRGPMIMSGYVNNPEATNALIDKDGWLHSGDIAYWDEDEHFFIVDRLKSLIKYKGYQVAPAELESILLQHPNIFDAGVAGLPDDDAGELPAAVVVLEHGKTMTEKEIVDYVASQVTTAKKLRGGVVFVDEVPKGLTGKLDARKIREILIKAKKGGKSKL
- assayMethodText: Biochemical firefly luciferase enzyme assay for NPC (AID 624030); further: nearly all actives have a fitted effect of over 70% in size
- conditionParameters: purified P. pyralis luciferase, luminescence, 5 min; series mostly up to 58.6 µM
Results filed as inconclusive are left out. The source made the active and inactive calls. The call rests on the fitted dose curve; in most records, active means well fitted inhibition curve with a large enough effect; inconclusive means small, poorly fitted or top-dose-only effect; inactive means flat fitted curve, though single readings scatter.
Tick one outcome: active, inactive

Task item: Answer briefly: the call reported for CNC(=O)c1c(I)c(C(=O)NCC(=O)Nc2c(I)c(C(=O)O)c(I)c(C(=O)NCCO)c2I)c(I)c(N(C)C(C)=O)c1I in this assay.
Reply: inactive

Task item: Query CO[C@H]1C[C@@H]2CC[C@@H](C)[C@@](O)(O2)C(=O)C(=O)N2CCCC[C@H]2C(=O)O[C@H]([C@H](C)C[C@@H]2CC[C@@H](OC(=O)C(C)(CO)CO)[C@H](OC)C2)CC(=O)[C@H](C)/C=C(\C)[C@@H](O)[C@@H](OC)C(=O)[C@H](C)C[C@H](C)/C=C/C=C/C=C/1C next
Reply: inactive

Task item: Query CC(CNC(=O)c1cccnc1)NC(=O)c1cccnc1 (stereo not drawn) next
Reply: inactive

Task item: Query CC(C)C1=CC2=CC[C@@H]3[C@](C)(CCC[C@@]3(C)C(=O)O)[C@H]2CC1 next
Reply: inactive

Task item: Query CCOC(C)OCC next
Reply: inactive

Task item: Query COC(=O)c1ccccc1O next
Reply: inactive

Task item: Query CC(C)OC(=O)Nc1ccc2nc(-c3cscn3)[nH]c2c1 next
Reply: active

Task item: Query CCC(C(=O)NC(N)=O)c1ccccc1 (stereo not drawn) next
Reply: inactive

Task item: Query NCCO/C=C/[C@H](N)C(=O)O next
Reply: inactive

Task item: Query COc1ccc(/C=N/NC(=O)c2ccncc2)c(C(=O)O)c1OC next
Reply: inactive

Task item: Query CN(C)CCCSc1ccccc1NC(=O)/C=C/c1ccccc1 next
Reply: inactive

Task item: Query CCCCCCCCCCCCOCCCN next
Reply: inactive

Task item: Query CCCCCCOC(=O)c1cccnc1 next
Reply: inactive

Task item: Query CSCCC(N)C(=O)O (stereo not drawn) next
Reply: inactive

Task item: Query CC(=O)Nc1c(I)c(C(=O)O)c(I)c(N(C)C(C)=O)c1I next
Reply: inactive

Task item: Query CSc1nc2cc(Oc3cccc(Cl)c3Cl)c(Cl)cc2[nH]1 next
Reply: inactive

Task item: Query Cn1c(=O)c2c(ncn2CCOC(=O)C(C)(C)Oc2ccc(Cl)cc2)n(C)c1=O next
Reply: inactive

Task item: Query C[C@H](CCCC(C)(C)O)[C@H]1CC[C@H]2[C@@H]3CC=C4C[C@@H](O)CC[C@]4(C)[C@H]3CC[C@]12C next
Reply: inactive

Task item: Query CCCCC/C=C\C/C=C\C/C=C\CCCCC(=O)O next
Reply: inactive

Task item: Query CC(O)CN(C)C (stereo not drawn) next
Reply: inactive

Task item: Query COC(=O)C(CN)c1c[nH]c2ccc(OC)cc12 (stereo not drawn) next
Reply: inactive

Task item: Query CCOC(=O)C1=C(COCCN)NC(C)=C(C(=O)OC)C1c1ccccc1Cl (stereo not drawn) next
Reply: inactive

Task item: Query N=C(N)n1cccn1 next
Reply: inactive

Numbers sourced from PubChem BioAssay (NCATS).
